Biological target: xanthine oxidase (XO) (Bos taurus)
Sequence (P80457 2-1332 limits assumed): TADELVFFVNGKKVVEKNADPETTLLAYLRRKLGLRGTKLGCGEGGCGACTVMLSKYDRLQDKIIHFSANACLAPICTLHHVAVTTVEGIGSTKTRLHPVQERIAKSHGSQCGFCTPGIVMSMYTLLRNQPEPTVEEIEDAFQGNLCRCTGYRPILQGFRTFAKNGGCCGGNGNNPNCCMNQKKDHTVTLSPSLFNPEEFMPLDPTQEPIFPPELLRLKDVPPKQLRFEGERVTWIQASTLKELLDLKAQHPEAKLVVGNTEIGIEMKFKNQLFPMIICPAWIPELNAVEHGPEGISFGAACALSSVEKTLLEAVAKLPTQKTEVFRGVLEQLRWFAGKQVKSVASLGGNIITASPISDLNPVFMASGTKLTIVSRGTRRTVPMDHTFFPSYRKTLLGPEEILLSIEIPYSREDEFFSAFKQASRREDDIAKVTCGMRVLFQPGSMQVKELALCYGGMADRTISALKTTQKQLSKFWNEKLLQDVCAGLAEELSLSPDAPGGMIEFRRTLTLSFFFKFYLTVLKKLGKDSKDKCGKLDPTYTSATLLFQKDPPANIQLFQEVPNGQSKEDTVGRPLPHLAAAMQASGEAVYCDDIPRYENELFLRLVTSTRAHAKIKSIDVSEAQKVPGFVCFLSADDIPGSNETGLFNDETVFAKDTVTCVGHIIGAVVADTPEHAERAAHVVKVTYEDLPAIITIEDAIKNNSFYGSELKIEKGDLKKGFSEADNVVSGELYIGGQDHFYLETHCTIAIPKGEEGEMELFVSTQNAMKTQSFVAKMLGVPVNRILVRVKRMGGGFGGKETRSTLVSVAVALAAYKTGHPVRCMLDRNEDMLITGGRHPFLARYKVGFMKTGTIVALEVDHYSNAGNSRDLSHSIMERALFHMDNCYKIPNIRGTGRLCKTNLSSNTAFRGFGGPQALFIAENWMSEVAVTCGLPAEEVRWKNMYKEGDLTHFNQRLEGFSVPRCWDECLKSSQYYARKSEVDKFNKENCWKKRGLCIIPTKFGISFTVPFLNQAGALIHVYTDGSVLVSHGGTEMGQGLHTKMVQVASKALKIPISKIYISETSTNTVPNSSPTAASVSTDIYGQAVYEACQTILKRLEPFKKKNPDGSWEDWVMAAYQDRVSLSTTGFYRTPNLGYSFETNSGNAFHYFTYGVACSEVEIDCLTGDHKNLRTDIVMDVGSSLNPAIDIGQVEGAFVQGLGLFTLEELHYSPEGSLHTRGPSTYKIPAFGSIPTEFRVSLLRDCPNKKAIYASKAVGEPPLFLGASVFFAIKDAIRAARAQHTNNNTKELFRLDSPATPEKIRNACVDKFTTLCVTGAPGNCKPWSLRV
pIC50: −log10 of the molar value.
Measure: pIC50

Compound | Reported result
O=C(/C=C/c1ccc(O)c(O)c1)O[C@@H]1C[C@](O)(C(=O)O)C[C@@H](O)[C@H]1O [Chlorogenic acid, chlorogenic acid, reference compound] | 4.45

---

Reported DPPH antioxidant activity values for the following compounds.
Assay: DPPH• assay (spectrophotometric antioxidant activity)
Conditions: trolox equivalents, n = 3, average ± SD
Marks after values point to notes of the source that are not given here.

Compound | DPPH antioxidant activity
C[C@@H]1OC(Oc2c(-c3ccc(O)cc3)oc3cc(O)cc(O)c3c2=O)[C@H](O)[C@H](O)[C@H]1O (stereo partly shown) [Afzelin, kaempferol-3-O-rhamnopyranoside] | 149.35 ± 4.28 ^d mg TE/g
O=C(/C=C/c1ccc(O)c(O)c1)O[C@@H]1CC(O)(C(=O)O)C[C@@H](OC(=O)/C=C/c2ccc(O)c(O)c2)C1O (stereo partly shown) [3,5-Dicaffeoylquinic acid, 3,5-dicaffeoylquinic acid, reference compound] | 665.53 ± 1.96 ^b mg TE/g
O=c1c(O[C@@H]2O[C@H](CO)[C@H](O)[C@H](O)[C@H]2O[C@@H]2O[C@H](CO)[C@@H](O)[C@H](O)[C@H]2O)c(-c2ccc(O)c(O)c2)oc2cc(O)cc(O)c12 | 400.21 ± 11.78 ^c mg TE/g
C[C@@H]1O[C@@H](Oc2c(-c3ccc(O)cc3)oc3cc(O)cc(O)c3c2=O)[C@H](OC(=O)/C=C/c2ccc(O)cc2)[C@H](OC(=O)/C=C/c2ccc(O)cc2)[C@H]1O [Platanoside] | 143.11 ± 1.31 ^d mg TE/g

---

Measured CUPRAC antioxidant activity values are reported for all entries that follow.
Assay: CUPRAC assay (cupric reducing antioxidant capacity)
Settings: trolox equivalents, n = 3, average ± SD
Marks after values point to notes of the source that are not given here.

Compound | CUPRAC antioxidant activity
C[C@@H]1OC(Oc2c(-c3ccc(O)cc3)oc3cc(O)cc(O)c3c2=O)[C@H](O)[C@H](O)[C@H]1O (stereo partly shown) [Afzelin, kaempferol-3-O-rhamnopyranoside] | 171.40 ± 8.24 ^e mg TE/g
O=c1c(O[C@@H]2O[C@H](CO)[C@H](O)[C@H](O)[C@H]2O[C@@H]2O[C@H](CO)[C@@H](O)[C@H](O)[C@H]2O)c(-c2ccc(O)c(O)c2)oc2cc(O)cc(O)c12 | 560.53 ± 14.74 ^c mg TE/g
C[C@@H]1O[C@@H](Oc2c(-c3ccc(O)cc3)oc3cc(O)cc(O)c3c2=O)[C@H](OC(=O)/C=C/c2ccc(O)cc2)[C@H](OC(=O)/C=C/c2ccc(O)cc2)[C@H]1O [Platanoside] | 213.68 ± 8.41 ^d mg TE/g
O=C(/C=C/c1ccc(O)c(O)c1)O[C@@H]1CC(O)(C(=O)O)C[C@@H](OC(=O)/C=C/c2ccc(O)c(O)c2)C1O (stereo partly shown) [3,5-Dicaffeoylquinic acid, 3,5-dicaffeoylquinic acid, reference compound] | 760.83 ± 12.84 ^b mg TE/g

---

Assay: Superoxide radical scavenging (SOD) activity (xanthine/XO/NBT)
Format: biochemical
Conditions: enzymatic xanthine/XO/NBT, 560 nm, n = 3, ± SD; N.d. = Not detected
Marks after values point to notes of the source that are not given here.

Molecule | SOD Activity IC50
O=c1c(O[C@@H]2O[C@H](CO)[C@H](O)[C@H](O)[C@H]2O[C@@H]2O[C@H](CO)[C@@H](O)[C@H](O)[C@H]2O)c(-c2ccc(O)c(O)c2)oc2cc(O)cc(O)c12 | 5.09 ± 0.36 ^a µg/mL
Oc1ncnc2[nH]ncc12 [Allopurinol, allopurinol, reference compound] | 3.03 ± 0.10 ^a µg/mL
C[C@@H]1OC(Oc2c(-c3ccc(O)cc3)oc3cc(O)cc(O)c3c2=O)[C@H](O)[C@H](O)[C@H]1O (stereo partly shown) [Afzelin, kaempferol-3-O-rhamnopyranoside] | 20.61 ± 1.30 ^b µg/mL
O=C(/C=C/c1ccc(O)c(O)c1)O[C@@H]1CC(O)(C(=O)O)C[C@@H](OC(=O)/C=C/c2ccc(O)c(O)c2)C1O (stereo partly shown) [3,5-Dicaffeoylquinic acid, 3,5-dicaffeoylquinic acid, reference compound] | 5.87 ± 0.32 ^a µg/mL
